- Target Or System: Human recombinant LSD1 protein (Homo sapiens (Human))
- Protocol Description: biochemical
pKi: −log10 of the molar value. Counter-ions that a name gives are not always drawn.
Reported Property: pKi

1. N[C@H]1C[C@@H]1c1ccc(-c2ccc(F)c(O)c2)cc1 (relative stereo) [Example 66, hydrochloride]    7.00 to 9.00
2. N[C@H]1C[C@@H]1c1ccc(-c2cc3ccccc3s2)nc1 (relative stereo) [Example 54, hydrochloride]    6.00 to 7.00
3. N[C@H]1C[C@@H]1c1ccc(-c2cc(C(F)(F)F)ccc2F)nc1 (relative stereo) [Example 49, hydrochloride]    6.00 to 7.00
4. N[C@H]1C[C@@H]1c1ccc(-c2ccc3c(c2)NC(=O)C3)nc1 (relative stereo) [Example 62, hydrochloride]    6.00 to 7.00
5. N[C@H]1C[C@@H]1c1ccc(-c2cc(O)cc(Cl)c2)cc1 (relative stereo) [Example 67, hydrochloride]    7.00 to 9.00
6. N#Cc1ccccc1S(=O)(=O)Nc1cccc(-c2ncc([C@H]3C[C@@H]3N)s2)c1 (relative stereo) [Example 124, dihydrochloride]    7.00 to 9.00
7. Cc1ccc(-c2ccc([C@H]3C[C@@H]3N)cn2)cc1O (relative stereo) [Example 46, hydrochloride]    7.00 to 9.00
8. N[C@H]1C[C@@H]1c1ccc(-c2cccc(O)c2F)nc1 (relative stereo) [Example 26, hydrochloride]    6.00 to 7.00
9. CCS(=O)(=O)Nc1cccc(-c2ccc([C@H]3C[C@@H]3N)cn2)c1 (relative stereo) [Example 98, hydrochloride]    7.00 to 9.00
10. COc1cc(-c2ccc([C@H]3C[C@@H]3N)cn2)cc(F)c1F (relative stereo) [Example 58, hydrochloride]    6.00 to 7.00
11. N[C@H]1C[C@@H]1c1ccc(-c2cc(C(F)(F)F)ccc2Cl)nc1 (relative stereo) [Example 50, hydrochloride]    6.00 to 7.00
12. N[C@H]1C[C@@H]1c1ccc(-c2cc(O)c(F)c(F)c2)nc1 (relative stereo) [Example 59, hydrochloride]    7.00 to 9.00
13. COc1ccc(-c2ccc([C@H]3C[C@@H]3N)cn2)cc1 (relative stereo) [Example 10, hydrochloride]    6.00 to 7.00
14. N[C@H]1C[C@@H]1c1ccc(-c2cc(Cl)cc(Cl)c2)nc1 (relative stereo) [Example 6, hydrochloride]    6.00 to 7.00
15. N[C@H]1C[C@@H]1c1ccc(-c2cc(O)ccc2Cl)nc1 (relative stereo) [Example 47, hydrochloride]    6.00 to 7.00
16. COc1cc(F)cc(-c2ccc([C@H]3C[C@@H]3N)cn2)c1 (relative stereo) [Example 39, hydrochloride]    6.00 to 7.00
17. COc1cc(-c2ccc([C@H]3C[C@@H]3N)cn2)ccc1F (relative stereo) [Example 38, hydrochloride]    6.00 to 7.00
18. COc1cc(-c2cccc(O)c2)ccc1[C@H]1C[C@@H]1N (relative stereo) [Example 106, hydrochloride]    6.00 to 7.00
19. COc1ccc(Cl)c(-c2ccc([C@H]3C[C@@H]3N)cn2)c1 (relative stereo) [Example 43, hydrochloride]    6.00 to 7.00
20. N[C@H]1C[C@@H]1c1ccc(-c2ccc(F)c(O)c2)nc1 (relative stereo) [Example 23, hydrochloride]    7.00 to 9.00
21. Cc1cscc1-c1ccc([C@H]2C[C@@H]2N)cn1 (relative stereo) [Example 57, hydrochloride]    6.00 to 7.00
22. N[C@H]1C[C@@H]1c1ccc(-c2cccc(C(F)(F)F)c2F)nc1 (relative stereo) [Example 30, hydrochloride]    6.00 to 7.00
23. CS(=O)(=O)Nc1cc(-c2ccc([C@H]3C[C@@H]3N)cc2)ccc1F (relative stereo) [Example 96, hydrochloride]    7.00 to 9.00
24. N#Cc1ccc(-c2ccc([C@H]3C[C@@H]3N)cn2)cc1 (relative stereo) [Example 12, dihydrochloride]    6.00 to 7.00
25. COc1ccc(C#N)cc1-c1ccc([C@H]2C[C@@H]2N)cn1 (relative stereo) [Example 72, hydrochloride]    6.00 to 7.00
26. N[C@H]1C[C@@H]1c1ccc(-c2ccc(Cl)s2)nc1 (relative stereo) [Example 31, hydrochloride]    7.00 to 9.00
27. N#Cc1cccc(-c2ccc([C@H]3C[C@@H]3N)cn2)c1 (relative stereo) [Example 13, hydrochloride]    7.00 to 9.00
